Where do these numbers come from? They come from patent US20260356804A1.

- test_system: human Nav1.8/β1 (Homo sapiens)
- Construct: host or cells: HEK293
- Sequence (Q9Y5Y9 whole entry): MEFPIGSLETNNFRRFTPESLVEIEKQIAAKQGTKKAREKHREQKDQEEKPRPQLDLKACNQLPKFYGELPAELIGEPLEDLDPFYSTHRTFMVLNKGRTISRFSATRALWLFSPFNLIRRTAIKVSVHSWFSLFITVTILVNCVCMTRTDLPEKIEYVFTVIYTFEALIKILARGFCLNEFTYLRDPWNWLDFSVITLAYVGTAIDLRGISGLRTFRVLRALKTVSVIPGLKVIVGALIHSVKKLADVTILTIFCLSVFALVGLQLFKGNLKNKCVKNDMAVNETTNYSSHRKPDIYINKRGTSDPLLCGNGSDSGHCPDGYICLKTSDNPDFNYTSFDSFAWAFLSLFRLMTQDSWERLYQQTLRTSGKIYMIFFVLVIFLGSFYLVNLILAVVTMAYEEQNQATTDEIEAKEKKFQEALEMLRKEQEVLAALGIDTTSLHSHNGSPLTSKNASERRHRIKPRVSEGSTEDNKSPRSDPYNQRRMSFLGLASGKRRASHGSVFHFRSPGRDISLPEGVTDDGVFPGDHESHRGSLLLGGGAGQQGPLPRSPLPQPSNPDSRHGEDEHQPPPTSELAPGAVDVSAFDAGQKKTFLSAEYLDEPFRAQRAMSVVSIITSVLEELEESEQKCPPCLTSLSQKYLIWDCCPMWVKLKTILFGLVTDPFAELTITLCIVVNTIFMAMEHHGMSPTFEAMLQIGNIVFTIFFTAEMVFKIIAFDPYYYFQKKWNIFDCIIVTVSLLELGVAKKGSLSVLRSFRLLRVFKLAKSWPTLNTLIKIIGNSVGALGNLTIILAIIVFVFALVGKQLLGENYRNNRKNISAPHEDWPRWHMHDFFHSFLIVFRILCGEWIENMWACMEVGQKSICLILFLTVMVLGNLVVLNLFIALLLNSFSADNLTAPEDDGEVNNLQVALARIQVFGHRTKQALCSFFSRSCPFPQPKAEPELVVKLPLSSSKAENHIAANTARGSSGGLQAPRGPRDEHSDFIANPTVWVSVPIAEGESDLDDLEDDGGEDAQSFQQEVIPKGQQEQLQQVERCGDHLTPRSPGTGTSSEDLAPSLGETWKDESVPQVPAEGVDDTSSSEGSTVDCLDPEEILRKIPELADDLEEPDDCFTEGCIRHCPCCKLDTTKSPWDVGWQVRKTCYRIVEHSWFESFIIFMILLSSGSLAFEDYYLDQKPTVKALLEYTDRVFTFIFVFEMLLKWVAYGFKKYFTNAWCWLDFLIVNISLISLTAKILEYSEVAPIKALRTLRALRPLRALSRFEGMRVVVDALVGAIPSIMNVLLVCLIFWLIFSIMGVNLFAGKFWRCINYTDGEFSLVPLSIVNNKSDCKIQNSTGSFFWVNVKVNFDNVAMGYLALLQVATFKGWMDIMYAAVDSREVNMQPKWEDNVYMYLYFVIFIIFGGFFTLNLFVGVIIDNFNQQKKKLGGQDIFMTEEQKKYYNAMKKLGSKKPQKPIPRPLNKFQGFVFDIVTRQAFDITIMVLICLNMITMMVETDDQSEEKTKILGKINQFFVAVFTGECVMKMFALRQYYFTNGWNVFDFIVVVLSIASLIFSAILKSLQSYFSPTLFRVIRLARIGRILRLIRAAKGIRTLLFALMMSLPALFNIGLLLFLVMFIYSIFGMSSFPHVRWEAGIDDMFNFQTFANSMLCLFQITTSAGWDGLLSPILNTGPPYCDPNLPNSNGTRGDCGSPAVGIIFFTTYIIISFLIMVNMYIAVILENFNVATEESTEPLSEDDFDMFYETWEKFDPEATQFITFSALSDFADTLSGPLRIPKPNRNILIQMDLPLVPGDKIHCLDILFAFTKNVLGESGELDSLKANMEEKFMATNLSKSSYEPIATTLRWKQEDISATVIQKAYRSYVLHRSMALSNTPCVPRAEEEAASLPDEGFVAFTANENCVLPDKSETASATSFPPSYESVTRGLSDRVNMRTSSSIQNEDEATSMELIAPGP
- Sequence (Q07699 19-218 partner): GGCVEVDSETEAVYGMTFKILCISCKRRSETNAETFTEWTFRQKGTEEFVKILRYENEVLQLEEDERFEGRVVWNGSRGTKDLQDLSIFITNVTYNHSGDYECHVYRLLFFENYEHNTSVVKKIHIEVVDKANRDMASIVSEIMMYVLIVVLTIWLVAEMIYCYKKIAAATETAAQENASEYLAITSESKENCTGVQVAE
- protocol_notes: Compound Profiling Human NaV1.8/β1 Cell Line—Sophion QPatch II Assay (automated patch clamp, stably transfected HEK293 cells)
- Assay type: cell-based
measured_endpoint: IC50

INSERT INTO assay_data (compound, test_system, result) VALUES
  ('Cc1nc(F)ccc1Oc1ncc(C2CCCC2)c(C)c1C(=O)Nc1ccnc([S@](C)(=N)=O)c1 [Example 86C]', 'human Nav1.8/β1 (Homo sapiens)', '0.005 to 0.05 µM'),
  ('Cc1nc(F)ccc1Oc1ncc(C(F)(F)F)c(C)c1C(=O)Nc1cc(S(=N)(=O)CCCO)ccn1 (centres unmarked) [Example 49C]', 'human Nav1.8/β1 (Homo sapiens)', '> 0.2 µM'),
  ('CNCCCS(=N)(=O)c1cccc(NC(=O)c2c(Oc3ccc(F)nc3C)ncc(C(F)(F)F)c2C)c1 (centres unmarked) [Example 74C]', 'human Nav1.8/β1 (Homo sapiens)', '0.005 to 0.05 µM'),
  ('Cc1nc(F)ccc1Oc1ncc(C(F)(F)F)c(C)c1C(=O)Nc1cccc([S@@](=N)(=O)CCO)c1 [Example 66C]', 'human Nav1.8/β1 (Homo sapiens)', '0.05 to 0.1 µM'),
  ('Cc1nc(F)ccc1Oc1ncc(C2CCCC2)c(C)c1C(=O)Nc1cccc([S@](C)(=N)=O)c1 [Example 87C]', 'human Nav1.8/β1 (Homo sapiens)', '0.005 to 0.05 µM'),
  ('CNCCCS(=N)(=O)c1cccc(NC(=O)c2c(Oc3ccc(C#N)cc3OC)ncc(C(F)(F)F)c2C)c1 (centres unmarked) [Example 60C]', 'human Nav1.8/β1 (Homo sapiens)', '< 0.005 µM'),
  ('COc1cc(C#N)ccc1Oc1cc(C(F)(F)F)c(Cl)cc1C(=O)Nc1ccc(F)c([S@](C)(=N)=O)c1', 'human Nav1.8/β1 (Homo sapiens)', '0.005 to 0.05 µM'),
  ('Cc1nc(F)ccc1Oc1ncc(C(F)(F)F)c(C)c1C(=O)Nc1cncc([S@@](C)(=N)=O)c1 [Example 62C]', 'human Nav1.8/β1 (Homo sapiens)', '> 0.2 µM'),
  ('Cc1nc(F)ccc1Oc1ncc(C(F)(F)F)c(C)c1C(=O)Nc1cccc(S(=O)(=O)CCCO)c1 [Example 70C]', 'human Nav1.8/β1 (Homo sapiens)', '0.1 to 0.2 µM'),
  ('Cc1nc(F)ccc1Oc1ncc(C(F)(F)F)c(C)c1C(=O)N(C)c1cccc([S@@](C)(=N)=O)c1 [Example 47C]', 'human Nav1.8/β1 (Homo sapiens)', '> 0.2 µM'),
  ('COc1cc(C#N)ccc1Oc1ncc(C(F)(F)F)c(C)c1C(=O)Nc1cccc([S@@](=N)(=O)CCCO)c1 [Example 58C]', 'human Nav1.8/β1 (Homo sapiens)', '0.005 to 0.05 µM');
